Assayed target: human αvβ3 receptor (Homo sapiens, UniProt P05106+P06756)
Protocol: Displacement of the binding Vitronectin/Vitronectin receptor (αvβ3), competition test
Settings: human vitronectin coated plates, 3 hours at ambient temperature, read-out: Competition test Vn/VR (αvβ3) binding IC50 en
pIC50: −log10 of the molar value.
Quantity: pIC50

Would you please look over these solved cases?
>>> quantitative_readout("COc1c(OCC(=O)C(C)(C)CC(=O)O)cc2c(c1OC)C1=C(CCC1)C(=NNC1=NCCN1)CC2 [EX. 10]")
6.10
>>> quantitative_readout("COc1c(OCCCC(=O)O)cc2c(c1OC)C1=C(CCC1)C(=NNC1=NCCN1)CC2 [EX. 11]")
7.30
>>> quantitative_readout("COc1c(OCCC(NC(=O)OCc2ccccc2)C(=O)O)cc2c(c1OC)C1=C(CCC1)C(=NNC1=NC3CCCCC3N1)CC2 (racemic) [EX. 32]")
7.46
>>> quantitative_readout("COc1c(OCCC(NC(=O)OCCCn2cnc(-c3cccnc3)c2)C(=O)O)cc2c(c1OC)C1=C(CCC1)C(=NNC1=NCCN1)CC2 (racemic) [EX. 29]")
7.55

(a) COc1c(OCCC(=O)O)cc2c(c1OC)C1=C(CCC1)C(=NNC1=NCCN1)CC2 [EX. 14]
(b) O=C(O)CCCOc1ccc2c(c1)CCC(=NNC1=NCCN1)C1=C2CCC1 [EX. 21]
(c) O=C(NC(CCOc1ccc2c(c1)CCC(=NNC1=NCCN1)C1=C2CCC1)C(=O)O)OCc1ccccc1 (racemic) [EX. 25]
Rank the items in ascending order with respect to pIC50. Labels, ranked as asked.
a, b, c

====

Readings of inhibition at 10 µM for the listed molecules
Tested on: bone resorption (skullcaps of new-born mice)
Protocol: Test of mouse calvarium: bone resorption by release of 45Ca from skullcaps of new-born mice, ex-vivo
Settings: Mus musculus, inhibition of bone resorption (45Ca release) in half-calvaria, 48 hours contact, read-out: Mouse cavarium % inhibition at 10 μM
Numbers only here, please. The scale is %.

>>> quantitative_readout("COc1c(OCCC(NC(=O)OCc2ccccc2)C(=O)O)cc2c(c1OC)C1=C(CCC1)C(=NNC1=NCCN1)CC2 (racemic) [EX. 24]")
18
>>> quantitative_readout("COc1c(OCCC(=O)O)cc2c(c1OC)C1=C(CCC1)C(=NNC1=NCCN1)CC2 [EX. 14]")
14
>>> quantitative_readout("O=C(NC(CCOc1ccc2c(c1)CCC(=NNC1=NCCN1)C1=C2CCC1)C(=O)O)OCc1ccccc1 (racemic) [EX. 25]")
26
>>> quantitative_readout("COc1c(OCCC(NC(=O)OCCCn2cnc(-c3cccnc3)c2)C(=O)O)cc2c(c1OC)C1=C(CCC1)C(=NNC1=NCCN1)CC2 (racemic) [EX. 29]")
18
>>> quantitative_readout("COc1c(OCCC(NC(=O)OCc2ccccc2)C(=O)O)cc2c(c1OC)C1=C(CCC1)C(=NNC1=NCCCCN1)CC2 (racemic) [EX. 31]")
20

Per the record, COc1c(OCCCCC(=O)O)cc2c(c1OC)C1=C(CCC1)C(=NNC1=NCCN1)CC2 [EX. 6] has inhibition at 10 µM of 7.5

Per the record, COc1c(OCCCC(=O)O)cc2c(c1OC)C1=C(CCC1)C(=NNC1=NCCN1)CC2 [EX. 11] has inhibition at 10 µM of 7

====

Assayed target: human αvβ3 receptor (Homo sapiens, UniProt P05106+P06756)
Protocol: Displacement of the binding Vitronectin/Vitronectin receptor (αvβ3), competition test
Settings: human vitronectin coated plates, 3 hours at ambient temperature, read-out: Competition test Vn/VR (αvβ3) binding IC50 en
Quantity: IC50 (nM)

>>> quantitative_readout("COc1c(OCCC(NC(=O)OCc2ccccc2)C(=O)OCC(O)CO)cc2c(c1OC)C1=C(CCC1)C(=NNC1=NCCCN1)CC2 (racemic)")
170

(A) COc1c(OCCCCCC(=O)O)cc2c(c1OC)C1=C(CCC1)C(=NNC1=NCCN1)CC2
(B) COc1c(OCCCCC(=O)O)cc2c(c1OC)C1=C(CCC1)C(=NNC1=NCCN1)CC2
Hi team, can someone confirm which has the larger IC50: A or B ? Thanks. Write down the label of the entry you select.
A

These measurements were taken from patent US6459001B1.
